Molecular target: NK-1 (Homo sapiens, UniProt P25103)
Construct: 30 ul/well of a 2×U373 membrane preparation
Sequence (P25103 whole entry): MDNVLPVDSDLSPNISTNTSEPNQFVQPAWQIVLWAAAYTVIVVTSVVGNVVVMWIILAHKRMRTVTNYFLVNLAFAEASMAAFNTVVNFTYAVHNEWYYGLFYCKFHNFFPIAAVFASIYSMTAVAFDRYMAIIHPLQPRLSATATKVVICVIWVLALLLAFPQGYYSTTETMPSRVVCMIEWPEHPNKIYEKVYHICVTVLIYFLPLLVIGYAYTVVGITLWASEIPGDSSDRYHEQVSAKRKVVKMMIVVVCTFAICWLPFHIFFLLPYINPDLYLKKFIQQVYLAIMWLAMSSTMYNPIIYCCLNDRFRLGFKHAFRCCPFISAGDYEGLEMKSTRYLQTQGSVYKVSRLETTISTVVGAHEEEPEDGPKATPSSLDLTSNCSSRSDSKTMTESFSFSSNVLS
Assay: NK1 radioligand binding assay ([125I]Substance P, U373 membranes)
Conditions: U373 cell membranes, 200 pM [125I]Substance P, 1 hour at room temperature
pIC50: −log10 of the molar value. Counter-ions that a name gives are not always drawn.
measured_quantity: pIC50

{"columns": ["compound", "assay_value"],
 "data": [
  ["C[C@@H](OCC1(c2ccc(F)cc2)CCN(C)CC1)c1cc(Cl)cc2c(Cl)n[nH]c12", "7.00 to 11.00"],
  ["COC(=O)C(OCC1(c2ccc(F)cc2)CCN(C)CC1)c1cc(Cl)cc2cn[nH]c12 (stereo not shown) [Example 89, trifluoroacetic acid salt]", "< 6.52"],
  ["CCn1cnc2c(C(C)OCC3(c4ccc(F)cc4)CCN(C)CC3)cc(C(F)(F)F)cc21 (single isomer, unassigned) [Example 136]", "7.00 to 11.00"],
  ["CC(OCC1(c2ccc(F)cc2)CCN(C)CC1)c1cc(C(F)(F)F)cc2c1ccn2C (racemic)", "7.00 to 11.00"],
  ["Fc1ccc(C2(COCc3cc(C(F)(F)F)cc4cn[nH]c34)CCNCC2)cc1", "7.00 to 11.00"],
  ["Cc1cc(COCC2(c3ccccc3)CCNCC2)cc2cn[nH]c12", "< 6.52"],
  ["CN1CCC(COC(CC#N)c2cc(Cl)cc3cn[nH]c23)(c2ccc(F)cc2)CC1 (stereo not shown)", "7.00 to 11.00"]
]}

====

Reported IC50 values are given for each entry in this list.
Target: hSERT (Homo sapiens, UniProt P31645)
Sequence (P31645 whole entry): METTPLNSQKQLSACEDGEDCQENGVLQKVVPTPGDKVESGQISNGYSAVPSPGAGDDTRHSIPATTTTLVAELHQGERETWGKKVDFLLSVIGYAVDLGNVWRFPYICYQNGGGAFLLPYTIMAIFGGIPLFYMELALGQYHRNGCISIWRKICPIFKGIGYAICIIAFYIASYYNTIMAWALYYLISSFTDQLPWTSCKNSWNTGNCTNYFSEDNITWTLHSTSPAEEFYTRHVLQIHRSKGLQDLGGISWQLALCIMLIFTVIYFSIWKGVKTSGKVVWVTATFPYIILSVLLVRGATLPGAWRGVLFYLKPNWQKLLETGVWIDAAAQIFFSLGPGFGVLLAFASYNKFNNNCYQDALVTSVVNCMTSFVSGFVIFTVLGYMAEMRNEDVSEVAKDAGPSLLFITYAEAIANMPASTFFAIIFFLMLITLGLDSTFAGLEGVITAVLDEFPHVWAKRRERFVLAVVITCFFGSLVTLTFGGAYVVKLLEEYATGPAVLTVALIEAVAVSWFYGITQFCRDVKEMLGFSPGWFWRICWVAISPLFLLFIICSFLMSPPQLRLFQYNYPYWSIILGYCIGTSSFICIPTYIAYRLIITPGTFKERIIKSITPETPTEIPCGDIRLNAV
Assay: SERT radioligand binding assay ([125I]RTI-55, HEK-hSERT membranes)
Conditions: HEK-293 hSERT membranes, 260 pM [125I]RTI-55, 1 hour at room temperature; read-out: SERT IC50
measured_quantity: IC50

{"columns": ["molecule", "measured_quantity", "assay_value"],
 "data": [
  ["CC(OCC1(c2ccc(F)cc2)CCN(C)CC1)c1cc(Cl)cc2cn(C3CC3)nc12 (racemic)", "IC50", "0.01 to 100 nM"],
  ["CC(OCC1(c2ccc(F)cc2)CCN(C)CC1)c1cc(C(F)(F)F)cc2ccn(C)c12 (single isomer, unassigned) [Example 74]", "IC50", "100 to 300 nM"],
  ["C[C@@H](OCC1(c2ccc(F)cc2)CCNCC1)c1cc(Br)cc2c(Br)n[nH]c12", "IC50", "0.01 to 100 nM"],
  ["CC(OCC1(c2ccc(F)cc2)CCN(C)CC1)c1cc(C(F)(F)F)cc2cn[nH]c12 (single isomer, unassigned) [Example 23]", "IC50", "0.01 to 100 nM"],
  ["CC(OCC1(c2ccccc2)CCN(C)CC1)c1cc(C(F)(F)F)cc2cc[nH]c12 (racemic)", "IC50", "100 to 300 nM"],
  ["Cn1ncc2cc(C(F)(F)F)cc(COCC3(c4ccc(F)cc4)CCNCC3)c21", "IC50", "0.01 to 100 nM"],
  ["CN1CCC(COCc2nc3ccc(Br)cc3n2CC2CC2)(c2ccccc2)CC1", "IC50", "0.01 to 100 nM"],
  ["C[C@@H](OCC1(c2ccccc2)CCNCC1)c1cc(Cl)cc2c(Cl)n[nH]c12", "IC50", "0.01 to 100 nM"],
  ["C[C@@H](OCC1(c2ccc(F)cc2)CCN(C)CC1)c1cc(Cl)cc2c(Cl)n(CC(F)(F)F)nc12", "IC50", "0.01 to 100 nM"],
  ["CC(OCC1(c2ccc(F)cc2)CCN(C)CC1)c1cc(Cl)cc2c(C3CC3)n[nH]c12 (racemic)", "IC50", "0.01 to 100 nM"],
  ["C[C@@H](OCC1(c2ccc(F)cc2)CCNCC1)c1cc(Cl)cc2cn(CC3CC3)nc12", "IC50", "0.01 to 100 nM"],
  ["Cc1n[nH]c2c(C(C)OCC3(c4ccccc4)CCNCC3)cc(C(F)(F)F)cc12 (racemic)", "IC50", "0.01 to 100 nM"],
  ["CN1CCC(COCc2nc3cc(-c4ccc(Cl)cc4Cl)ccc3n2CC2CC2)(c2ccccc2)CC1", "IC50", "0.01 to 100 nM"],
  ["C[C@@H](OCC1(c2ccc(F)cc2)CCN(C)CC1)c1cc(Cl)cc2c(Cl)n[nH]c12", "IC50", "0.01 to 100 nM"],
  ["CN1CCC(COCc2cc(C(F)(F)F)cc3nnn(C)c23)(c2ccc(F)cc2)CC1", "IC50", "0.01 to 100 nM"]
]}
